As shown below, each of these binders has a reported pKd value.
TEST_SYSTEM: T1, scHLA-B27-mmH (engineered HLA-B*27 ectodomain in-line fusion protein) (human (HLA-B*2705, beta-2 …))
T1 construct: also called soluble HLA-B*27 fusion protein
PROTOCOL_TEXT: SPR (Biacore), 25 C, PBS pH 5.75
// pKd: -log10(molar conc.)

H4H2538P (antibody, V domains shown) VH: QVQLVQSGAEVKKPGASVKVSCKASGYTFTDYYMHWVRQAPGQGLEWIGWINPNSGGSNFAQKFQGRVTMTRDTSISTAYMELSRLRSDDTAVYYCARKAGYTSSWFDYWGQGTLVTVSS VL: DIVMTQSPDSLAVSLGERATINCKSSQSVLYSFNNKNYLSWYQQKPGQPPKLLIYWASTRESGVPDRFSGSGSGTDFTLTISSLQAEDAAVYYCQQYYSMITFGQGTRLEIK | 9.19

*Q* Tell me the measured pKd of H4H2524P (antibody, V domains shown) VH: QVQLQESGPGLVKPSQTLSLTCTVSGGSISSDGYYWSWIRQHPGKGLEWIGYIYYSGNTYYNPSLKSRVTISVDTSKNHFSLKLSSVTAADTAVYYCTRDPRGITGTHYFDYWGQGTLVTVSS VL: EIVLTQSPGTLSLSPGERATLSCRTSQSVSSSYLAWYQQKPGQAPRLLIYGASSRATGIPDRFSGSGSGTDFTLTISRLEPEDFAVYYCQQFGTSLFTFGPGTKVDIK , please.
*A* 6.69
